B1: CDCA4 (found with purified B55 variants) [human] / B55α WT (immunopurified, Fig. 2) [not stated] (parent complex)
chain 1: MFARGLKRKCVGHEEDVEGALAGLKTVSSYSLQRQSLLDMSLVKLQLCHMLVEPNLCRSVLIANTVRQIQEEMTQDGTWRTVAPQAAERAPLDRLVSTEILCRAAWGQEGAHPAPGLGDGHTQGPVSDLCPVTSAQAPRHLQSSAWEMDGPRENRGSFHKSLDQIFETLETKNPSCMEELFSDVDSPYYDLDTVLTGMMGGARPGPCEGLEGLAPATPGPSSSCKSDLGELDHVVEILVET
chain 2: MAGAGGGNDIQWCFSQVKGAVDDDVAEADIISTVEFNHSGELLATGDKGGRVVIFQQEQENKIQSHSRGEYNVYSTFQSHEPEFDYLKSLEIEEKINKIRWLPQKNAAQFLLSTNDKTIKLWKISERDKRPEGYNLKEEDGRYRDPTTVTTLRVPVFRPMDLMVEASPRRIFANAHTYHINSISINSDYETYLSADDLRINLWHLEITDRSFNIVDIKPANMEELTEVITAAEFHPNSCNTFVYSSSKGTIRLCDMRASALCDRHSKLFEEPEDPSNRSFFSEIISSISDVKFSHSGRYMMTRDYLSVKIWDLNMENRPVETYQVHEYLRSKLCSLYENDCIFDKFECCWNGSDSVVMTGSYNNFFRMFDRNTKRDITLEASRENNKPRTVLKPRKVCASGKRKKDEISVDSLDFNKKILHTAWHPKENIIAVATTNNLYIFQDKVN

Variants of: B1
ASSAY_REMARKS: immunopurification of YFP-B55α variants (IP: YFP), Western blot quantification; read off a plot
READOUT_LABEL: percent of parent

chain 2 T230A | ~58%
chain 2 Y337A | ~50%
chain 2 D340A | ~28%
chain 2 Y178A | ~90%
chain 2 F280A | ~110%
chain 2 F343A | ~28%
chain 2 S287A | ~130%
chain 2 L225A | ~75%
chain 2 L198A | ~40%
chain 2 H179A | ~93%

Input line: # input variant: chain 2 V228A ; wanted: its percent of parent
Output line: ~78%

Input line: Also chain 2 I284A , if possible.
Output line: ~160%

Input line: chain 2 D197A ?
Output line: ~80%

Recorded values, source paper PMC11446282.
